Target: T1, mouse MMP-2 (Mus musculus, UniProt P33434)
T1 construct: purchased R&D Systems 924-MP-010
T1 sequence (P33434 110-662): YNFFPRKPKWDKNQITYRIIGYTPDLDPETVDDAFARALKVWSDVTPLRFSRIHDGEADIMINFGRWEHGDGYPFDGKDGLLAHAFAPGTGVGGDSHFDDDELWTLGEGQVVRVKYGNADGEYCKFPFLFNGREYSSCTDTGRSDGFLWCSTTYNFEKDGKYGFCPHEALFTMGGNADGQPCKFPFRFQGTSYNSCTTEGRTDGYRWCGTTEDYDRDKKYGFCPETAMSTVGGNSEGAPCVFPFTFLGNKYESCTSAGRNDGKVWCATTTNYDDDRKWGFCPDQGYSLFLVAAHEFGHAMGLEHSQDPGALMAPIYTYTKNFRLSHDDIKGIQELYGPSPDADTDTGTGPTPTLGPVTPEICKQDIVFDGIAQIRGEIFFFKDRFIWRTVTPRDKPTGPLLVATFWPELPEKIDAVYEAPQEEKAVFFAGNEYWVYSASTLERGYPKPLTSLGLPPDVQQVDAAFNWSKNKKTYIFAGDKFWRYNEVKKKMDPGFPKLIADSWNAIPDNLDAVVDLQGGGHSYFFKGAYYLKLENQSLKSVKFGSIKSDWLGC
Assay: Enzyme inhibition assay (single point inhibition, IC50/Ki,app), substrate M-2350
Type: biochemical
Details: small-scale sFab; Table 10
Below, each entry is listed alongside its reported Ki.
Number only, in nM; omit the unit.

molecule | quantity-kind | display-unit | reading
M0272-H08: affinity matured variant of M237-D02, sFab (antibody, V domains shown) VH: EVQLLESGGGLVQPGGSLRLSCAASGFTFSAYDMWWVRQAPGKGLEWVSVIYPSGGTTFYADSVKGRFTISRDNSKNTLYLQMNSLRAEDTAVYYCAKDRAYGDYVGWNGFDYWGQGTLVTVSS VL: QDIQMTQSPATLSLSPGERATLSCRASQSISSFLAWYQQKPGQAPRLLIYDASYRATGIPARFSGSGSGTDFTLTISSLEPEDYAVYYCQQRGNWPITFGQGTRLEIK | Ki | nM | 46

Value of measured Ki for the entry M0299-A12: affinity matured variant of M237-D02, sFab (antibody, V domains shown) VH: EVQLLESGGGLVQPGGSLRLSCAASGFTFSHYPMWWVRQAPGKGLEWVSYISSSGGGTFYADSVKGRFTISRDNSKNTLYLQMNSLRAEDTAVYYCAKDRAYGDYVGWNGFDYWGQGTLVTVSS VL: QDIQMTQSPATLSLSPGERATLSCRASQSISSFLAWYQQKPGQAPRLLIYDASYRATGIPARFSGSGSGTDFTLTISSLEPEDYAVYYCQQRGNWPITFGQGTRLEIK : 30

Reference for the values: patent US20110135573A1
